# protocol: Binding affinity to poly(rA).(rU) RNA duplex (unknown origin) assessed as appearance of negative induced LD signal at 348 nanometer at 100 uM after 5 mins by microvolume couette flow linear dichroism method
The source made the active and inactive calls. No cut-off for these calls is given here.
observation type: Activity

INSERT INTO results (compound, observation_type, reading) VALUES
  ('CN1CCN(c2ccc3nc(-c4ccc5nc(-c6ccc(OCCCCCCCCOCc7cn(C[C@H]8O[C@@H](O[C@@H]9[C@@H](O)[C@H](N)C[C@H](N)[C@H]9O[C@H]9O[C@H](CN)[C@@H](O)[C@H](O)[C@H]9N)[C@H](O)[C@@H]8O[C@H]8OC(CN)[C@@H](O)[C@H](O)[C@H]8N)nn7)cc6)[nH]c5c4)[nH]c3c2)CC1 (some centres undefined)', 'Activity', 'Active'),
  ('CN1CCN(c2ccc3nc(-c4ccc5nc(-c6ccc(OCCCCCCCCCCOCc7cn(C[C@H]8O[C@@H](O[C@@H]9[C@@H](O)[C@H](N)C[C@H](N)[C@H]9O[C@H]9O[C@H](CN)[C@@H](O)[C@H](O)[C@H]9N)[C@H](O)[C@@H]8O[C@H]8OC(CN)[C@@H](O)[C@H](O)[C@H]8N)nn7)cc6)[nH]c5c4)[nH]c3c2)CC1 (some centres undefined)', 'Activity', 'Active'),
  ('CN1CCN(c2ccc3nc(-c4ccc5nc(-c6ccc(OCCCCCCCCCCCCOCc7cn(C[C@H]8O[C@@H](O[C@@H]9[C@@H](O)[C@H](N)C[C@H](N)[C@H]9O[C@H]9O[C@H](CN)[C@@H](O)[C@H](O)[C@H]9N)[C@H](O)[C@@H]8O[C@H]8OC(CN)[C@@H](O)[C@H](O)[C@H]8N)nn7)cc6)[nH]c5c4)[nH]c3c2)CC1 (some centres undefined)', 'Activity', 'Active'),
  ('CN1CCN(c2ccc3nc(-c4ccc5nc(-c6ccc(OCc7cn(C[C@H]8O[C@@H](O[C@@H]9[C@@H](O)[C@H](N)C[C@H](N)[C@H]9O[C@H]9O[C@H](CN)[C@@H](O)[C@H](O)[C@H]9N)[C@H](O)[C@@H]8O[C@H]8OC(CN)[C@@H](O)[C@H](O)[C@H]8N)nn7)cc6)[nH]c5c4)[nH]c3c2)CC1 (some centres undefined)', 'Activity', 'Active'),
  ('CN1CCN(c2ccc3nc(-c4ccc5nc(-c6ccc(OCCCCCCCCc7cn(C[C@H]8O[C@@H](O[C@@H]9[C@@H](O)[C@H](N)C[C@H](N)[C@H]9O[C@H]9O[C@H](CN)[C@@H](O)[C@H](O)[C@H]9N)[C@H](O)[C@@H]8O[C@H]8OC(CN)[C@@H](O)[C@H](O)[C@H]8N)nn7)cc6)[nH]c5c4)[nH]c3c2)CC1 (some centres undefined)', 'Activity', 'Active'),
  ('CN1CCN(c2ccc3nc(-c4ccc5nc(-c6ccc(OCCCCCCOCc7cn(C[C@H]8O[C@@H](O[C@@H]9[C@@H](O)[C@H](N)C[C@H](N)[C@H]9O[C@H]9O[C@H](CN)[C@@H](O)[C@H](O)[C@H]9N)[C@H](O)[C@@H]8O[C@H]8OC(CN)[C@@H](O)[C@H](O)[C@H]8N)nn7)cc6)[nH]c5c4)[nH]c3c2)CC1 (some centres undefined)', 'Activity', 'Active');

Please give Activity, item by item, for the list that follows.
1. CN1CCN(c2ccc3nc(-c4ccc5nc(-c6ccc(OCCCCOCc7cn(C[C@H]8O[C@@H](O[C@@H]9[C@@H](O)[C@H](N)C[C@H](N)[C@H]9O[C@H]9O[C@H](CN)[C@@H](O)[C@H](O)[C@H]9N)[C@H](O)[C@@H]8O[C@H]8OC(CN)[C@@H](O)[C@H](O)[C@H]8N)nn7)cc6)[nH]c5c4)[nH]c3c2)CC1 (some centres undefined)
2. CN1CCN(c2ccc3nc(-c4ccc5nc(-c6ccc(OCCOCCOCCOCCOCCOCCOCc7cn(C[C@H]8O[C@@H](O[C@@H]9[C@@H](O)[C@H](N)C[C@H](N)[C@H]9O[C@H]9O[C@H](CN)[C@@H](O)[C@H](O)[C@H]9N)[C@H](O)[C@@H]8O[C@H]8OC(CN)[C@@H](O)[C@H](O)[C@H]8N)nn7)cc6)[nH]c5c4)[nH]c3c2)CC1 (some centres undefined)
3. CN1CCN(c2ccc3nc(-c4ccc5nc(-c6ccc(OCCCCc7cn(C[C@H]8O[C@@H](O[C@@H]9[C@@H](O)[C@H](N)C[C@H](N)[C@H]9O[C@H]9O[C@H](CN)[C@@H](O)[C@H](O)[C@H]9N)[C@H](O)[C@@H]8O[C@H]8OC(CN)[C@@H](O)[C@H](O)[C@H]8N)nn7)cc6)[nH]c5c4)[nH]c3c2)CC1 (some centres undefined)

1: Active; 2: Active; 3: Active
